Reference for the values: the supplement of paper PMC12067926

test system: Rhizobium 1 (Rhizobium herbae); test: relative growth (AUC of 72 h growth curve relative to DMSO control, dAUC) (ratio); higher = more growth (less inhibition), active = hit call of the paper; conditions: 20 µM
Label rule, in plain words: relative growth of 1 and up is MET, under 1 is NOT MET.

>  <compound>
CCCCOC(=O)[C@H](C)Oc1ccc(Oc2ccc(C#N)cc2F)cc1

>  <discrete_label>
MET

$$$$
>  <compound>
N#CCNC(=O)c1cnccc1C(F)(F)F

>  <discrete_label>
NOT MET

$$$$
>  <compound>
CC1=NNC(=O)N(/N=C/c2cccnc2)C1

>  <discrete_label>
MET

$$$$
>  <compound>
O=C(NC(=O)c1c(F)cccc1F)Nc1ccc(OC(F)(F)C(F)OC(F)(F)F)c(Cl)c1 (configuration not stated)

>  <discrete_label>
NOT MET

$$$$
>  <compound>
CC(C1CC1)C(O)(Cn1cncn1)c1ccc(Cl)cc1 (configuration not stated)

>  <discrete_label>
NOT MET

$$$$
>  <compound>
CNC(=O)c1cc(Cl)cc(C)c1NC(=O)c1cc(Br)nn1-c1ncccc1Cl

>  <discrete_label>
NOT MET

$$$$
>  <compound>
CCCCC(C#N)(Cn1cncn1)c1ccc(Cl)cc1 (configuration not stated)

>  <discrete_label>
NOT MET

$$$$
>  <compound>
CCOP(=S)(OCC)Oc1nc(Cl)c(Cl)cc1Cl

>  <discrete_label>
NOT MET

$$$$
>  <compound>
CC(C)OC(=O)Nc1cccc(Cl)c1

>  <discrete_label>
NOT MET

$$$$
>  <compound>
CN/C(=N/CC1CCOC1)N[N+](=O)[O-] (configuration not stated)

>  <discrete_label>
NOT MET

$$$$
>  <compound>
CC(C)(C)c1ccc(CSc2cnn(C(C)(C)C)c(=O)c2Cl)cc1

>  <discrete_label>
MET

$$$$
>  <compound>
CO/C=C(/C(=O)OC)c1ccccc1Oc1cc(Oc2ccccc2C#N)ncn1

>  <discrete_label>
NOT MET

$$$$
>  <compound>
CC(C)NC(=O)N1CC(=O)N(c2cc(Cl)cc(Cl)c2)C1=O

>  <discrete_label>
MET

$$$$
>  <compound>
C#CCN1C(=O)COc2cc(F)c(N3C(=O)C4=C(CCCC4)C3=O)cc21

>  <discrete_label>
NOT MET

$$$$
>  <compound>
CS(=O)(=O)NC(=O)c1cc(Oc2ccc(C(F)(F)F)cc2Cl)ccc1[N+](=O)[O-]

>  <discrete_label>
NOT MET

$$$$
